The values you see were collected from PubChem BioAssay (NCI).

test system: SR leukemia; test: NCI tumour cell line growth inhibition, 48 h; in the data active = GI50 below about 0.43 µM; inactive = the rest
Outcome codes: active, inactive

{"columns": ["MOLECULE", "ASSIGNED_CLASS"],
 "data": [
  ["C[C@]12CC[C@H]3[C@@H](CCC4=CC(=O)CC[C@@H]43)[C@@H]1CC[C@@H]2OC(=O)N(CCCl)N=O", "active"],
  ["OCC1OC(n2ccc3c2ncn2ncnc32)C(O)C1O (centres undefined)", "inactive"],
  ["CCN(CC)CCOc1ccc(C(=C(C)c2ccc(Cl)cc2)c2ccc(OCCN(CC)CC)cc2)cc1", "inactive"],
  ["c1ccc2nc(Cn3c[n+](Cc4ccc5ccccc5n4)c4ccccc43)ccc2c1", "inactive"]
]}

* * *

system: PC-3 prostate; assay: NCI tumour cell line growth inhibition, 48 h; in the data active = GI50 below about 0.43 µM; inactive = the rest
Possible outcomes: True (active), False (inactive)

{"columns": ["MOLECULE", "EXPERIMENTAL_TARGET", "ASSIGNED_CLASS"],
 "data": [
  ["O=C1C(Cl)=C(N/N=c2/[nH][nH]/c(=N/NC3=C(Cl)C(=O)c4ccccc4C3=O)c3ccccc23)C(=O)c2ccccc21", "PC-3 prostate", "False"],
  ["c1ccc2[nH]c(-c3ccc(N4CCN(c5ccc(-c6nc7ccccc7[nH]6)cc5)CC4)cc3)nc2c1", "PC-3 prostate", "False"],
  ["Cc1cc(N2CCCCC2)nc(N(CCNc2ccnc3cc(Cl)ccc23)Cc2ccco2)n1", "PC-3 prostate", "False"],
  ["COc1ccc(-c2ccc(-c3ccc(C(=N)N)nc3)s2)cc1", "PC-3 prostate", "False"],
  ["CC12CCC(=O)C(O1)C1C(=O)c3cc4ccccc4cc3C(=O)C12 (stereo not given)", "PC-3 prostate", "False"],
  ["CCN(CC)c1ccc(/C=C/c2cc(C)c3ccccc3n2)cc1", "PC-3 prostate", "False"],
  ["N#CSc1ncnc2nc[nH]c12", "PC-3 prostate", "False"],
  ["COc1cc2cc(C(=O)N3CC(CCl)c4c3cc(NC(=O)C(C)(C)c3ccccc3[N+](=O)[O-])c3ccccc43)[nH]c2c(OC)c1OC (stereo not given)", "PC-3 prostate", "False"],
  ["COc1cc2c(cc1OC)-c1ccc3cc4c(cc3c1N(CCN1CCCC1)C2)OCO4", "PC-3 prostate", "True"],
  ["COc1cccc(C2=C(c3cn(C)c4ccccc34)C(=O)NC2=O)c1", "PC-3 prostate", "False"]
]}

* * *

tested on: HCC-2998 colon; experiment: NCI tumour cell line growth inhibition, 48 h
Readings of TGI for the listed compounds
OUTCOME_MEASURE: TGI

{"columns": ["COMPOUND", "OUTCOME_MEASURE", "TEST_VALUE"],
 "data": [
  ["CCCN1C(=O)/C(=c2\\sc3n(c2=O)C2C(NN=3)N(CC)C(=O)N2CC)c2ccccc21 (stereo not given)", "TGI", "19.6 µM"],
  ["Cc1occc1C(=S)Nc1ccc(Cl)c(C(=O)OCC(F)(F)F)c1", "TGI", "35.1 µM"],
  ["NC(=S)NNC(=O)/C(=C/c1ccc(/C=C(\\NC(=O)c2ccccc2)C(=O)NNC(N)=S)cc1)NC(=O)c1ccccc1", "TGI", "> 100 µM"],
  ["O=C(O)C(=C\\c1ccc2c(c1)OCO2)/C(=C/c1ccc2c(c1)OCO2)C(=O)O", "TGI", "> 100 µM"],
  ["COc1ccc(Br)c2c1CC(C(=O)O)CC2 (stereo not given)", "TGI", "> 100 µM"],
  ["C/C(=N\\N)C(CN(C)C)C(c1ccccc1)c1c(O)c2ccccc2oc1=O (stereo not given)", "TGI", "> 100 µM"],
  ["NC(=O)C(Nc1c(Cl)cccc1Cl)c1cc2cc(Br)ccc2nc1Cl (stereo not given)", "TGI", "> 100 µM"],
  ["COc1cc2nc(Cl)nc(Nc3cccc(C(=O)/C=C/c4ccccc4)c3)c2cc1OC", "TGI", "5.56 µM"],
  ["C=CCONC(=O)c1ccc(Cl)cc1", "TGI", "> 100 µM"],
  ["C/C(CN1C(=O)c2ccccc2C1=O)=N\\NS(=O)(=O)c1ccc(Br)cc1", "TGI", "> 100 µM"]
]}
